# Test system: 997726-040-R-J2-PDC tumor spheroids, viability;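 note: spheroids exposed to compounds for seven days before readout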
# Assay text: Anticancer human tumor 997726-040-R-J2-PDC patient-derived squamous cell lung carcinoma cell line growth inhibition [PI3K]
# Condition summary: second compound 1 µM; first compound 0.1 µM; stronger effect = lower value; spheroids with HUVEC and MSC
viability, T/C by entry:

Example molecules with recorded viability, T/C:
C=CC(=O)N1CCN(c2nc(=O)n(-c3c(C)ccnc3C(C)C)c3nc(-c4c(O)cccc4F)c(F)cc23)C(C)C1 (stereo unspecified) + CC(Nc1ccc2c(c1)OCCn1cc(N3C(=O)OCC3C(F)F)nc1-2)C(N)=O : 27.5%
C#Cc1c(F)ccc2cc(O)cc(-c3ncc4c(N5CC6CCC(C5)N6)nc(OCC56CCCN5CC(F)C6)nc4c3F)c12 (stereo unspecified) + CC(Nc1ccc2c(c1)OCCn1cc(N3C(=O)OCC3C(F)F)nc1-2)C(N)=O : 30.1%
CC(Cn1ccc(-c2ccc(C#N)c(Cl)c2)n1)NC(=O)c1cc(C(C)O)[nH]n1 (stereo unspecified) + CC(Nc1ncnc2nc[nH]c12)c1cc2cccc(Cl)c2c(=O)n1-c1ccccc1 : 88.4%
CC(C)n1nc(-c2ccc3oc(N)nc3c2)c2c(N)ncnc21 + CC(Nc1ccc2c(c1)OCCn1cc(N3C(=O)OCC3C(F)F)nc1-2)C(N)=O : 2.78%
C[C@@H](NC(=O)c1ncnc(N)c1Cl)c1ncc(C(=O)Nc2cc(C(F)(F)F)c(Cl)cn2)s1 + CC(Nc1ccc2c(c1)OCCn1cc(N3C(=O)OCC3C(F)F)nc1-2)C(N)=O : 33.8%

Need viability, T/C, item Cn1ncnc1[C@H]1c2n[nH]c(=O)c3cc(F)cc(c23)N[C@@H]1c1ccc(F)cc1 + CC(Nc1ncnc2nc[nH]c12)c1cc2cccc(Cl)c2c(=O)n1-c1ccccc1
89.1%
